Hello, the source for this data is BindingDB's records for doi:10.7270/Q23T9FMP, in case you need it.

Below, each of the molecules is paired with its reported EC50 value.
target: Steroidogenic factor 1 (Homo sapiens, UniProt Q13285); assay: activation of SF-1 LBD reporter – cell-based, CHO-K1, Gal4-SF-1 LBD, luciferase luminescence, dose response (AID 692)
Sequence (Q13285 whole entry, the tested form may be a part): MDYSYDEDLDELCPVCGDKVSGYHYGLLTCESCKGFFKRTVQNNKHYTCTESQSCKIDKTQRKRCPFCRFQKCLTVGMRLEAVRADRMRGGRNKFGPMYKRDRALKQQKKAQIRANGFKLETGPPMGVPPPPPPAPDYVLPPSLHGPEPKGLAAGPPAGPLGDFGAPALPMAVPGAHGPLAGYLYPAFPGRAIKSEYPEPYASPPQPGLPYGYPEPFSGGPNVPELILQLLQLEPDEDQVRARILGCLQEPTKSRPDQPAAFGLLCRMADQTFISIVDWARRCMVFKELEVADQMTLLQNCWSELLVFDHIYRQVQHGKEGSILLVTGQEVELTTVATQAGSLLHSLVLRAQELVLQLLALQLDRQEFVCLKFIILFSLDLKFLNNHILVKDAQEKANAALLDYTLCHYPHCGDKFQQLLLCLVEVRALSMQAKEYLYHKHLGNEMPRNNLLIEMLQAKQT
State the answer as a number, implicitly in nM.

Below: 2 molecules and their reported EC50.
CC(=Nc1cccc(O)c1)c1sc2ccccc2c1O; 4470
CCOc1ccc(N2C(=O)c3ccccc3C2O)cc1 (stereo not drawn); 1250

Query: // EC50 lookup, key: `CCOC(=O)C1CCN(S(=O)(=O)c2ccc(-c3nc4ccccc4s3)s2)CC1`
Reply: 2170

Query: Same again, this time with `CC(C)(C)n1ncc2c(=O)n(CC(=O)NCc3ccccc3Cl)cnc21`
Reply: 138

Query: Proceed to `N#CCc1ccc(NC(=O)Nc2cccc(Cl)c2)cc1`
Reply: 2430

Query: Moving on to `O=C(Nc1cccc(-c2nnc(-c3ccccc3)o2)c1)c1ccc(Br)o1`
Reply: 4100

Query: Follow-up entry: `CCc1nnc(NC(=O)CSc2nc(C)c3c(c2C#N)CCCC3)s1`
Reply: 1690

Query: And what about the molecule `O=c1[nH]c2ccccc2nc1-c1cccs1` ?
Reply: 7840

Query: Consider next the molecule `O=C(NCc1ccco1)c1cc2c(s1)CCCCC2` in the same way.
Reply: 3100

Query: // next record `COC(=O)CSc1nc2cc(C)ccc2cc1C#N`
Reply: 746
